Listed here: items and their measured MFI.
- TESTED TARGET: T1, human GARP (glycoprotein A repetitions predominant, LRRC32) on the cell surface (human, UniProt Q14392 20-662)
- T1 construct: whole, on cells; also called hGARP; free GARP
- T1 sequence (looked up): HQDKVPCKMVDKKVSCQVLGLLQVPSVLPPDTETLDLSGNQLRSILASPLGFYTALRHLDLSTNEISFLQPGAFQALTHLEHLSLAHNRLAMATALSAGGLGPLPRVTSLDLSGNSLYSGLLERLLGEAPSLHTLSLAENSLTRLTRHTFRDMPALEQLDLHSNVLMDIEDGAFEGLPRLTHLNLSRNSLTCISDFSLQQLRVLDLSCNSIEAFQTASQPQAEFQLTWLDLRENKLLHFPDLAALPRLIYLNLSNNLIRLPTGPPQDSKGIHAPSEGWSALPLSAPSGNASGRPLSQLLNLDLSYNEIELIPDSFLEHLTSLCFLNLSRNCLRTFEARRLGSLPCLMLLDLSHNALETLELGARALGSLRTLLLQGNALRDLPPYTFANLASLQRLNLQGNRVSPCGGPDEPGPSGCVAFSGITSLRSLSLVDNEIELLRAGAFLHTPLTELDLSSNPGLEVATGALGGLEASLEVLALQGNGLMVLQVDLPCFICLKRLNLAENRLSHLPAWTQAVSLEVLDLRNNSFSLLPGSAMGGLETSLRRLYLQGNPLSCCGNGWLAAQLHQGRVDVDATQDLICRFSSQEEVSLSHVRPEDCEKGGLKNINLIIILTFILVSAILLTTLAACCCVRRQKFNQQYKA
- ASSAY NAME: FACS, Ag(+) cells, supernatant heated 70 C 5 min, 1 ug/ml
Mention the unit after the number when you answer.

Some solved entries appear below for comparison.
| BINDER | MFI |
| --- | --- |
| huPIIO-1VH2VL3 (antibody, V domains shown, Humanized IgG from Expi293, tested as culture supernatant; also called H2L3; HuPIIO-1VH2/L3) VH: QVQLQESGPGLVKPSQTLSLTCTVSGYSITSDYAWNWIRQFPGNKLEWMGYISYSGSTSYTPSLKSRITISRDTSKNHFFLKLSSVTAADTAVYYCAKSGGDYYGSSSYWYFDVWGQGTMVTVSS VL: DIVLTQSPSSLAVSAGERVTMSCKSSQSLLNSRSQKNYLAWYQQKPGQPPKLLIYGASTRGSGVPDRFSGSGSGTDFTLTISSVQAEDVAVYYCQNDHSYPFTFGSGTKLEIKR | 25.4 MFI |
| huPIIO-1VH3VL2 (antibody, V domains shown, Humanized IgG from Expi293, tested as culture supernatant; also called H3L2) VH: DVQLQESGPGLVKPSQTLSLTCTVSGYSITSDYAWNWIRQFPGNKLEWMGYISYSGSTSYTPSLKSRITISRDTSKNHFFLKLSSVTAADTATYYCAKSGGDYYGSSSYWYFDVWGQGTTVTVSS VL: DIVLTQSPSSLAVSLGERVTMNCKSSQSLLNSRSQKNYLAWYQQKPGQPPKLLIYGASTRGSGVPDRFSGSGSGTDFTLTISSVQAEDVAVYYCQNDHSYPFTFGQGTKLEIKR | 24.6 MFI |
| huPIIO-1VH4VL1 (antibody, V domains shown, Humanized IgG from Expi293, tested as culture supernatant; also called H4L1; HuPIIO-1VH4/L1) VH: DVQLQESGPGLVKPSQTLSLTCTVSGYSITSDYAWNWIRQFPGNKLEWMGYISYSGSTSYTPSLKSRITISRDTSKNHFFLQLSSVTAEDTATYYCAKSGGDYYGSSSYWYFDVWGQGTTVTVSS VL: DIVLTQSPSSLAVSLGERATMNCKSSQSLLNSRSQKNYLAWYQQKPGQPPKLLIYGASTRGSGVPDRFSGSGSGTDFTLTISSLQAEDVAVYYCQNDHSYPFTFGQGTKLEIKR | 25.4 MFI |

Lab book: MFI of huPIIO-1VH4VL2 (antibody, V domains shown, Humanized IgG from Expi293, tested as culture supernatant; also called H4L2; HuPIIO-1VH4/L2) VH: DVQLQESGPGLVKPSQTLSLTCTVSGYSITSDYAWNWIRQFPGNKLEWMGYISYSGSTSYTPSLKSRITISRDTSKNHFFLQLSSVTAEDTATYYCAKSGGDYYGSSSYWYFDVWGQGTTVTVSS VL: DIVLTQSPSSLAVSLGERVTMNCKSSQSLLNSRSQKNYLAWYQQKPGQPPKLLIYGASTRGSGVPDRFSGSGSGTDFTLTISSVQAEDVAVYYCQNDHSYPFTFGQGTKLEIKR noted as 25 MFI

// provenance: patent US20240425571A1
